Hello, the source for this data is paper PMC6260803, in case you need it.

measured.on: UniProtKB P84801
Sequence (P84801 whole entry): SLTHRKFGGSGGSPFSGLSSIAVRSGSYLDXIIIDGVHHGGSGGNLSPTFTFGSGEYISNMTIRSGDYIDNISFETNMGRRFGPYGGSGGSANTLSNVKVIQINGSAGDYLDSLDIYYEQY
Format: binding
measurement.conditions: isothermal titration calorimetry, binding to GRFT; value ± spread
Residues, ends and D or L forms follow the SMILES beside them. *: point of attachment. X1 = O=C(CO[C@H]1O[C@H](CO)[C@@H](O)[C@H](O)[C@@H]1O)*
readout.kind: n (stoichiometry of binding)

>>> endpoint_value("CC(=O)N[C@@H](CCCCNC(=O)CO[C@H]1O[C@H](CO)[C@@H](O)[C@H](O)[C@@H]1O)C(=O)NCC(=O)N[C@@H](CCCCNC(=O)CO[C@H]1O[C@H](CO)[C@@H](O)[C@H](O)[C@@H]1O)C(N)=O [Compound 1]")
1.56
>>> endpoint_value("CC(=O)N[C@@H](CCCCNC(=O)CO[C@H]1O[C@H](CO)[C@@H](O)[C@H](O)[C@@H]1O)C(=O)NCC(=O)NCC(=O)N[C@@H](CCCCNC(=O)CO[C@H]1O[C@H](CO)[C@@H](O)[C@H](O)[C@@H]1O)C(=O)NCC(=O)NCC(=O)N[C@@H](CCCCNC(=O)CO[C@H]1O[C@H](CO)[C@@H](O)[C@H](O)[C@@H]1O)C(N)=O [Compound 5] (Ac-K(X1)GGK(X1)GGK(X1)-NH2; N-terminus and C-terminus assumed)")
1.16
>>> endpoint_value("NC(=O)[C@H](CCCCNC(=O)[C@H](CCCCNC(=O)CNC(=O)CO[C@H]1O[C@H](CO)[C@@H](O)[C@H](O)[C@@H]1O)NC(=O)CNC(=O)CO[C@H]1O[C@H](CO)[C@@H](O)[C@H](O)[C@@H]1O)NC(=O)[C@H](CCCCNC(=O)CNC(=O)CO[C@H]1O[C@H](CO)[C@@H](O)[C@H](O)[C@@H]1O)NC(=O)CNC(=O)CO[C@H]1O[C@H](CO)[C@@H](O)[C@H](O)[C@@H]1O [Compound 12]")
1.08
